Each entry below lists one item and its recorded % Hemolysis at 512 μg/mL of polymyxin value.
System: pig erythrocytes
Conditions: red cells of pig, 1 h, 512
Positions of bridges follow the written chain, without caps; N, C: chain ends. Non-standard residues stand in square brackets, D forms with d. Residues, ends and D or L forms follow the SMILES beside them. *: point of attachment. Acetyl(1-adamantyl) = O=C(CC12CC3CC(CC(C3)C1)C2)*; Lauroyl = CCCCCCCCCCCC(=O)*; Dab = NCC[C@H](N)C(=O)O; Butyryl = CCCC(=O)*
Answer with a number only, understood to be in %.

Solved entries:
CCCCCCCCCCCC(=O)NCC[C@H](NC(=O)CCCCCCCCCCC)C(=O)N[C@H](C(=O)N[C@@H](CCN)C(=O)N[C@H]1CCNC(=O)[C@H]([C@@H](C)O)NC(=O)[C@H](CCN)NC(=O)[C@H](CCN)NC(=O)[C@H](CC(C)C)NC(=O)[C@@H](Cc2ccccc2)NC(=O)[C@H](CCN)NC1=O)[C@@H](C)O [Compound 3, Didodecanoic Acid (Di-C12) Polymyxin] (Lauroyl-[Dab](Lauroyl)T[Dab][Dab][Dab][dF]L[Dab][Dab]T; lactam 4-C) | 49.7
CCCC(=O)NCC[C@H](NC(=O)CCC)C(=O)N[C@H](C(=O)N[C@@H](CCN)C(=O)N[C@H]1CCNC(=O)[C@H]([C@@H](C)O)NC(=O)[C@H](CCN)NC(=O)[C@H](CCN)NC(=O)[C@H](CC(C)C)NC(=O)[C@@H](Cc2ccccc2)NC(=O)[C@H](CCN)NC1=O)[C@@H](C)O [Compound 1, Dibutyric Acid (Di-C4) Polymyxin] (Butyryl-[Dab](Butyryl)T[Dab][Dab][Dab][dF]L[Dab][Dab]T; lactam 4-C) | 1.1
CC(C)C[C@@H]1NC(=O)[C@@H](Cc2ccccc2)NC(=O)[C@H](CCN)NC(=O)[C@@H](NC(=O)[C@H](CCN)NC(=O)[C@@H](N)[C@@H](C)O)CCNC(=O)[C@H]([C@@H](C)O)NC(=O)[C@H](CCN)NC(=O)[C@H](CCN)NC1=O [PMBN, polymyxin B nonapeptide, reference compound] (H-T[Dab][Dab][Dab][dF]L[Dab][Dab]T; lactam 3-C (inferred)) | 1.1

Query compound follows.
Find the measured % Hemolysis at 512 μg/mL of polymyxin of CC(C)C[C@@H]1NC(=O)[C@@H](Cc2ccccc2)NC(=O)[C@H](CCN)NC(=O)[C@@H](NC(=O)[C@H](CCN)NC(=O)[C@@H](NC(=O)[C@H](CCNC(=O)CC23CC4CC(CC(C4)C2)C3)NC(=O)CC23CC4CC(CC(C4)C2)C3)[C@@H](C)O)CCNC(=O)[C@H]([C@@H](C)O)NC(=O)[C@H](CCN)NC(=O)[C@H](CCN)NC1=O [Compound 4] ({Acetyl(1-adamantyl)}-[Dab](Acetyl(1-adamantyl))T[Dab][Dab][Dab][dF]L[Dab][Dab]T; lactam 4-C) and report it.
3.2

====

Test system: P. aeruginosa PAO1
Design: unit not given beside the values
Settings: in combination with Meropenem
Positions of bridges follow the written chain, without caps; N, C: chain ends. Non-standard residues stand in square brackets, D forms with d. Residues, ends and D or L forms follow the SMILES beside them. *: point of attachment. Acetyl(1-adamantyl) = O=C(CC12CC3CC(CC(C3)C1)C2)*; Benzoyl(4-Ph) = O=C(c1ccc(-c2ccccc2)cc1)*; Lauroyl = CCCCCCCCCCCC(=O)*; Octanoyl = CCCCCCCC(=O)*; Dab = NCC[C@H](N)C(=O)O; Butyryl = CCCC(=O)*
parameter_measured: MIC of adjuvant in combo

Worked set:
CCCCCCCC(=O)NCC[C@H](NC(=O)CCCCCCC)C(=O)N[C@H](C(=O)N[C@@H](CCN)C(=O)N[C@H]1CCNC(=O)[C@H]([C@@H](C)O)NC(=O)[C@H](CCN)NC(=O)[C@H](CCN)NC(=O)[C@H](CC(C)C)NC(=O)[C@@H](Cc2ccccc2)NC(=O)[C@H](CCN)NC1=O)[C@@H](C)O [Compound 2, Dioctanoic Acid (Di-C8) Polymyxin] (Octanoyl-[Dab](Octanoyl)T[Dab][Dab][Dab][dF]L[Dab][Dab]T; lactam 4-C) | (4)
CC(C)C[C@@H]1NC(=O)[C@@H](Cc2ccccc2)NC(=O)[C@H](CCN)NC(=O)[C@@H](NC(=O)[C@H](CCN)NC(=O)[C@@H](NC(=O)[C@H](CCNC(=O)c2ccc(-c3ccccc3)cc2)NC(=O)c2ccc(-c3ccccc3)cc2)[C@@H](C)O)CCNC(=O)[C@H]([C@@H](C)O)NC(=O)[C@H](CCN)NC(=O)[C@H](CCN)NC1=O [Compound 5] ({Benzoyl(4-Ph)}-[Dab](Benzoyl(4-Ph))T[Dab][Dab][Dab][dF]L[Dab][Dab]T; lactam 4-C) | (8)
CC(C)C[C@@H]1NC(=O)[C@@H](Cc2ccccc2)NC(=O)[C@H](CCN)NC(=O)[C@@H](NC(=O)[C@H](CCN)NC(=O)[C@@H](NC(=O)[C@H](CCNC(=O)CC23CC4CC(CC(C4)C2)C3)NC(=O)CC23CC4CC(CC(C4)C2)C3)[C@@H](C)O)CCNC(=O)[C@H]([C@@H](C)O)NC(=O)[C@H](CCN)NC(=O)[C@H](CCN)NC1=O [Compound 4] ({Acetyl(1-adamantyl)}-[Dab](Acetyl(1-adamantyl))T[Dab][Dab][Dab][dF]L[Dab][Dab]T; lactam 4-C) | (4)
CCCCCCCCCCCC(=O)NCC[C@H](NC(=O)CCCCCCCCCCC)C(=O)N[C@H](C(=O)N[C@@H](CCN)C(=O)N[C@H]1CCNC(=O)[C@H]([C@@H](C)O)NC(=O)[C@H](CCN)NC(=O)[C@H](CCN)NC(=O)[C@H](CC(C)C)NC(=O)[C@@H](Cc2ccccc2)NC(=O)[C@H](CCN)NC1=O)[C@@H](C)O [Compound 3, Didodecanoic Acid (Di-C12) Polymyxin] (Lauroyl-[Dab](Lauroyl)T[Dab][Dab][Dab][dF]L[Dab][Dab]T; lactam 4-C) | (16)
CC(C)C[C@@H]1NC(=O)[C@@H](Cc2ccccc2)NC(=O)[C@H](CCN)NC(=O)[C@@H](NC(=O)[C@H](CCN)NC(=O)[C@@H](N)[C@@H](C)O)CCNC(=O)[C@H]([C@@H](C)O)NC(=O)[C@H](CCN)NC(=O)[C@H](CCN)NC1=O [PMBN, polymyxin B nonapeptide, reference compound] (H-T[Dab][Dab][Dab][dF]L[Dab][Dab]T; lactam 3-C (inferred)) | (16)

Let us examine a further case.
Look up MIC of adjuvant in combo of CCCC(=O)NCC[C@H](NC(=O)CCC)C(=O)N[C@H](C(=O)N[C@@H](CCN)C(=O)N[C@H]1CCNC(=O)[C@H]([C@@H](C)O)NC(=O)[C@H](CCN)NC(=O)[C@H](CCN)NC(=O)[C@H](CC(C)C)NC(=O)[C@@H](Cc2ccccc2)NC(=O)[C@H](CCN)NC1=O)[C@@H](C)O [Compound 1, Dibutyric Acid (Di-C4) Polymyxin] (Butyryl-[Dab](Butyryl)T[Dab][Dab][Dab][dF]L[Dab][Dab]T; lactam 4-C) and report it.
(32)
